# Tested System: Feline FcRn complex (FcRn-alpha subunit and beta-microglobulin) (feline)
# Assay Details: SPR (Biacore), feline FcRn captured on SA chip, IgG flowed over, pH 6
Form field: Kd (one value per entry).
Dear colleague, please return just the value in nM, with no unit written.

Below, 3 binders whose answers are already recorded.
Binder	Result Number
feline IgG1a Fc mutant Q311R, S428Y (antibody, part only; not given: Variable domains, not shown: another chain or arm of the molecule; small tags and cut ends) constant: ASTTAPSVFPLAPSCGTTSGATVALACLVLGYFPEPVTVSWNSGALTSGVHTFPAVLQASGLYSLSSMVTVPSSRWLSDTFTCNVAHPPSNTKVDKTVRKTDHPPGPKPCDCPKCPPPEMLGGPSIFIFPPKPKDTLSISRTPEVTCLVVDLGPDDSDVQITWFVDNTQVYTAKTSPREEQFNSTYRVVSVLPILHRDWLKGKEFKCKVNSKSLPSPIERTISKAKGQPHEPQVYVLPPAQEELSRNKVSVTCLIKSFHPPDIAVEWEITGQPEPENNYRTTPPQLDSDGTYFVYSKLSVDRSHWQRGNTYTCSVYHEALHSHHTQKSLTQSPGK	4.81
feline IgG1a Fc mutant S428M, S434R (antibody, part only; not given: variable domains, not shown: another chain or arm of the molecule; small tags and cut ends) constant: ASTTAPSVFPLAPSCGTTSGATVALACLVLGYFPEPVTVSWNSGALTSGVHTFPAVLQASGLYSLSSMVTVPSSRWLSDTFTCNVAHPPSNTKVDKTVRKTDHPPGPKPCDCPKCPPPEMLGGPSIFIFPPKPKDTLSISRTPEVTCLVVDLGPDDSDVQITWFVDNTQVYTAKTSPREEQFNSTYRVVSVLPILHQDWLKGKEFKCKVNSKSLPSPIERTISKAKGQPHEPQVYVLPPAQEELSRNKVSVTCLIKSFHPPDIAVEWEITGQPEPENNYRTTPPQLDSDGTYFVYSKLSVDRSHWQRGNTYTCSVMHEALHRHHTQKSLTQSPGK	5.46
feline IgG1a Fc mutant S428Y, S434R (antibody, part only; not given: Variable domains, not shown: another chain or arm of the molecule; small tags and cut ends) constant: ASTTAPSVFPLAPSCGTTSGATVALACLVLGYFPEPVTVSWNSGALTSGVHTFPAVLQASGLYSLSSMVTVPSSRWLSDTFTCNVAHPPSNTKVDKTVRKTDHPPGPKPCDCPKCPPPEMLGGPSIFIFPPKPKDTLSISRTPEVTCLVVDLGPDDSDVQITWFVDNTQVYTAKTSPREEQFNSTYRVVSVLPILHQDWLKGKEFKCKVNSKSLPSPIERTISKAKGQPHEPQVYVLPPAQEELSRNKVSVTCLIKSFHPPDIAVEWEITGQPEPENNYRTTPPQLDSDGTYFVYSKLSVDRSHWQRGNTYTCSVYHEALHRHHTQKSLTQSPGK	3.85

Task: Can you look up the measured Kd of feline IgG1a Fc mutant Q311R, S428M (antibody, part only; not given: variable domains and light chain, not shown: another chain or arm of the molecule; small tags and cut ends) constant: ASTTAPSVFPLAPSCGTTSGATVALACLVLGYFPEPVTVSWNSGALTSGVHTFPAVLQASGLYSLSSMVTVPSSRWLSDTFTCNVAHPPSNTKVDKTVRKTDHPPGPKPCDCPKCPPPEMLGGPSIFIFPPKPKDTLSISRTPEVTCLVVDLGPDDSDVQITWFVDNTQVYTAKTSPREEQFNSTYRVVSVLPILHRDWLKGKEFKCKVNSKSLPSPIERTISKAKGQPHEPQVYVLPPAQEELSRNKVSVTCLIKSFHPPDIAVEWEITGQPEPENNYRTTPPQLDSDGTYFVYSKLSVDRSHWQRGNTYTCSVMHEALHSHHTQKSLTQSPGK for me?
Result: 5.28

Origin of values: patent US20240400708A1
